Test system: metastin receptors
Test: Measurement of agonist activity by assaying changes in intracellular calcium ion level (FLIPR, Fluo-4 NW)
Format: cell-based, human
Conditions: specific activity of the EC50 of a test compound based on the EC50 of Metastin (45-54), metastin receptor expression CHO cells
Procedure: 1) Preparation of Human Metastin and Rat Metastin Stable Expression Cell Lines Human metastin and rat metastin stable expression cell lines were obtained by transfecting the expression plasmid for animal cells into CHO/dhfr^− cells using CellPhect Transfection Kit (manufactured by GE Healthcare). First, 240 μL of Buffer A (attached to CellPhect Transfection Kit) was added to 9.6 μg of plasmid DNA dissolved in 240 μL of distilled water followed by stirring. […]
*1 amine or outer side, *2 acyl side, *3 side chain or, on linkers, in order; H or OH if unused. Where a SMILES comes first, the peptide text is derived from it. [ ]: non-standard residue; d: D form. Glyψ(E-CHCH)Leu = CC(C)C[C@H](/C=C/CN[*:1])C(=O)[*:2]; Phe(3-Me) = Cc1cccc(C[C@H](N)C(=O)O)c1; Arg(Me) = CNC(=N)NCCC[C@H](N)C(=O)O; Hyp = O=C(O)[C@@H]1C[C@@H](O)CN1; Cha = N[C@@H](CC1CCCCC1)C(=O)O
Task for the reader: assign each of the following compounds its reported Specific Activity.
Answers are plain numbers.

For orientation, consider the following solved cases.
compound	Specific Activity
CC(=O)N[C@H](Cc1ccc(O)cc1)C(=O)N1C[C@H](O)C[C@H]1C(=O)N[C@@H](CC(N)=O)C(=O)N[C@H](C(=O)N[C@@H](CC1CCCCC1)C(=O)NC/C=C/[C@@H](CC(C)C)C(=O)N[C@@H](CCCNC(=N)N)C(=O)N[C@@H](Cc1c[nH]c2ccccc12)C(N)=O)[C@@H](C)O [Compound No. 926] (Ac-[dY][Hyp]NT[Cha][Glyψ(E-CHCH)Leu]RW-NH2)	0.6
CNC(=N)NCCC[C@H](NC(=O)[C@H](CC(C)C)NC(=O)CNC(=O)[C@H](Cc1ccccc1)NC(=O)[C@@H](NC(=O)[C@H](CC(N)=O)NC(=O)[C@@H]1C[C@@H](O)CN1C(=O)[C@@H](Cc1ccc(O)cc1)NC(C)=O)[C@@H](C)O)C(=O)N[C@@H](Cc1c[nH]c2ccccc12)C(N)=O [Compound No. 796] (Ac-[dY][Hyp]NTFGL[Arg(Me)]W-NH2)	1.2

# evaluate next
Exercise: Which Specific Activity is reported for this compound? CNC(=N)NCCC[C@H](NC(=O)[C@H](CC(C)C)NC(=O)CNC(=O)[C@H](Cc1cccc(C)c1)NC(=O)[C@@H](NC(=O)[C@H](CC(N)=O)NC(=O)[C@@H]1C[C@@H](O)CN1C(=O)[C@@H](Cc1ccc(O)cc1)NC(C)=O)[C@@H](C)O)C(=O)N[C@@H](Cc1c[nH]c2ccccc12)C(N)=O [Compound No. 873] (Ac-[dY][Hyp]NT[Phe(3-Me)]GL[Arg(Me)]W-NH2)
Solution: 0.8

----------
System: metastin receptors
Test: Measurement of agonist activity by assaying changes in intracellular calcium ion level (FLIPR, Fluo-4 NW)
Type: cell-based, human
Details: specific activity of the EC50 of a test compound based on the EC50 of Metastin (45-54), metastin receptor expression CHO cells
Procedure: 1) Preparation of Human Metastin and Rat Metastin Stable Expression Cell Lines Human metastin and rat metastin stable expression cell lines were obtained by transfecting the expression plasmid for animal cells into CHO/dhfr^− cells using CellPhect Transfection Kit (manufactured by GE Healthcare). First, 240 μL of Buffer A (attached to CellPhect Transfection Kit) was added to 9.6 μg of plasmid DNA dissolved in 240 μL of distilled water followed by stirring. […]
*1 amine or outer side, *2 acyl side, *3 side chain or, on linkers, in order; H or OH if unused. Where a SMILES comes first, the peptide text is derived from it. [ ]: non-standard residue; d: D form. Glyψ(E-CHCH)Leu = CC(C)C[C@H](/C=C/CN[*:1])C(=O)[*:2]; Arg(Me) = CNC(=N)NCCC[C@H](N)C(=O)O; Ala(cPr) = N[C@@H](CC1CC1)C(=O)O; Hyp = O=C(O)[C@@H]1C[C@@H](O)CN1; Cha = N[C@@H](CC1CCCCC1)C(=O)O
quantity-measured: Specific Activity
One number for each entry.

Completed entries (count: 2):
compound	numeric-value
CNC(=N)NCCC[C@H](NC(=O)[C@H](CC(C)C)NC(=O)CNC(=O)[C@H](CC1CC1)NC(=O)[C@@H](NC(=O)[C@H](CC(N)=O)NC(=O)[C@@H]1C[C@@H](O)CN1C(=O)[C@@H](Cc1ccc(O)cc1)NC(C)=O)[C@@H](C)O)C(=O)N[C@@H](Cc1c[nH]c2ccccc12)C(N)=O [Compound No. 855] (Ac-[dY][Hyp]NT[Ala(cPr)]GL[Arg(Me)]W-NH2)	1.9
CNC(=N)NCCC[C@H](NC(=O)[C@@H](/C=C/CNC(=O)[C@H](CC1CCCCC1)NC(=O)[C@@H](NC(=O)[C@H](CC(N)=O)NC(=O)[C@H](CCC(=O)O)NC(=O)[C@@H](Cc1ccc(O)cc1)NC(C)=O)[C@@H](C)O)CC(C)C)C(=O)N[C@@H](Cc1c[nH]c2ccccc12)C(N)=O [Compound No. 904] (Ac-[dY]ENT[Cha][Glyψ(E-CHCH)Leu][Arg(Me)]W-NH2)	0.5

Exercise: API: value(readout=Specific Activity, system=metastin receptors) for record CNC(=N)NCCC[C@H](NC(=O)[C@H](CC1CC1)NC(=O)CNC(=O)[C@H](CC1CCCCC1)NC(=O)[C@@H](NC(=O)[C@H](CC(N)=O)NC(=O)[C@@H]1C[C@@H](O)CN1C(=O)[C@@H](Cc1ccc(O)cc1)NC(C)=O)[C@@H](C)O)C(=O)N[C@@H](Cc1c[nH]c2ccccc12)C(N)=O [Compound No. 894] (Ac-[dY][Hyp]NT[Cha]G[Ala(cPr)][Arg(Me)]W-NH2)
Solution: 0.5

----------
Test system: metastin receptors
Test: Measurement of agonist activity by assaying changes in intracellular calcium ion level (FLIPR, Fluo-4 NW)
Assay type: cell-based, human
Conditions: specific activity of the EC50 of a test compound based on the EC50 of Metastin (45-54), metastin receptor expression CHO cells
*1 amine or outer side, *2 acyl side, *3 side chain or, on linkers, in order; H or OH if unused. Where a SMILES comes first, the peptide text is derived from it. [ ]: non-standard residue; d: D form. Glyψ(E-CHCH)Leu = CC(C)C[C@H](/C=C/CN[*:1])C(=O)[*:2]; X1 = CC(C)C[C@H](CCCN[*:1])C(=O)[*:2]; Arg(Me) = CNC(=N)NCCC[C@H](N)C(=O)O; Ala(cPr) = N[C@@H](CC1CC1)C(=O)O; Hyp = O=C(O)[C@@H]1C[C@@H](O)CN1; Cha = N[C@@H](CC1CCCCC1)C(=O)O
quantity-measured: Specific Activity
Answers are plain numbers.

Sample answers from the record:
molecule	target-or-test-system	Specific Activity
CNC(=N)NCCC[C@H](NC(=O)[C@H](CC1CC1)NC(=O)CNC(=O)[C@H](Cc1ccccc1)NC(=O)[C@@H](NC(=O)[C@H](CC(N)=O)NC(=O)[C@@H]1C[C@@H](O)CN1C(=O)[C@@H](Cc1ccc(O)cc1)NC(C)=O)[C@@H](C)O)C(=O)N[C@@H](Cc1c[nH]c2ccccc12)C(N)=O [Compound No. 916] (Ac-[dY][Hyp]NTFG[Ala(cPr)][Arg(Me)]W-NH2)	metastin receptors	0.8
CNC(=N)NCCC[C@H](NC(=O)[C@@H](CCCNC(=O)[C@H](Cc1ccccc1)NC(=O)[C@@H](NC(=O)[C@H](CC(N)=O)NC(=O)[C@@H]1C[C@@H](O)CN1C(=O)[C@@H](Cc1ccc(O)cc1)NC(C)=O)[C@@H](C)O)CC(C)C)C(=O)N[C@@H](Cc1c[nH]c2ccccc12)C(N)=O [Compound No. 893] (Ac-[dY][Hyp]NTF[X1][Arg(Me)]W-NH2)	metastin receptors	0.8

Note: attention shifts to another entry.
Exercise: Which Specific Activity is reported for this molecule? CNC(=N)NCCC[C@H](NC(=O)[C@@H](/C=C/CNC(=O)[C@H](CC1CCCCC1)NC(=O)[C@@H](NC(=O)[C@H](CCC(=O)O)NC(=O)[C@@H]1C[C@@H](O)CN1C(=O)[C@@H](Cc1ccc(O)cc1)NC(C)=O)[C@@H](C)O)CC(C)C)C(=O)N[C@@H](Cc1c[nH]c2ccccc12)C(N)=O [Compound No. 915] (Ac-[dY][Hyp]ET[Cha][Glyψ(E-CHCH)Leu][Arg(Me)]W-NH2)
Solution: 4.6
